Reported AIRE transcriptional activation functional score by item:
B1: library; numbered along this chain (parent)
chain: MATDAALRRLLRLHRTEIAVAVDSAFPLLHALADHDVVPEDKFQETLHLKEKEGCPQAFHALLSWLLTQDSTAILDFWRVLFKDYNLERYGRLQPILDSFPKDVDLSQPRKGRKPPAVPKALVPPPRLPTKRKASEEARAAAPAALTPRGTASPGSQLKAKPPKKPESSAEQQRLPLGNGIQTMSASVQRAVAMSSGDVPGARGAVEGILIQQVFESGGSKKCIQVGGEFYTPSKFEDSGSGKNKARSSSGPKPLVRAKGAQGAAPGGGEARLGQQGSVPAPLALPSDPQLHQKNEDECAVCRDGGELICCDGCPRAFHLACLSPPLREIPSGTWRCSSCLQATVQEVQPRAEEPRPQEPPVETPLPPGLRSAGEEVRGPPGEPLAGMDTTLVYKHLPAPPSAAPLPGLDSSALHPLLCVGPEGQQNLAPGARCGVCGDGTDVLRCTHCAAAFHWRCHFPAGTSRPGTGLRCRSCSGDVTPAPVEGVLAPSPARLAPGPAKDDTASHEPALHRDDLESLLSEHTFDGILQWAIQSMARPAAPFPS

Variants of: B1
Assay: AIRE transcriptional activation functional score (insulin promoter-GFP; nonsense median 0, synonymous median 1) (normalised score); higher = higher AIRE activity (more reporter activation)
Settings: with insulin promoter-GFP reporter in HEK293
property_name: AIRE transcriptional activation functional score

variant_description=P200V measured=0.795
variant_description=E517V measured=0.207
variant_description=P163W measured=2.35
variant_description=L519D measured=0.255
variant_description=D478P measured=0.801
variant_description=G435V measured=0.849
variant_description=R378F measured=1.1
variant_description=G240K measured=1.07
variant_description=A73Q measured=-1.02
variant_description=S338A measured=0.683
variant_description=E137N measured=0.174
variant_description=Q182F measured=-0.279
variant_description=E45K measured=0.348
variant_description=K221C measured=0.921
variant_description=L495Y measured=1.35
variant_description=I309H measured=0.916
variant_description=A271Y measured=0.83
variant_description=P289C measured=1.08
variant_description=K114C measured=1.06
variant_description=V487T measured=1.5
variant_description=L516E measured=-0.232
variant_description=E136P measured=1.91

All figures here come from the supplement of paper PMC12667976.
